Test system: Escherichia coli
experiment_summary: Antibacterial activity against wild type Escherichia coli AG100 assessed as growth inhibition after 18 hrs by two-fold serial dilution method
Assay type: functional
details: AG100, 18 h
*1 amine or outer side, *2 acyl side, *3 side chain or, on linkers, in order; H or OH if unused. Where a SMILES comes first, the peptide text is derived from it. The star is where a group is joined. X1 = c1ccc(CN(Cc2ccccc2)Cc2cccc(N*)c2)cc1; X2 = c1ccc(CN(Cc2ccccn2)Cc2cccc(N*)n2)nc1; Glutaryl = O=C(CCCC(=O)[*:2])[*:1]; OBn = c1ccc(CO*)cc1
Rule: MIC below 20 µM gives Criterion met. Equal to or above 20 µM gives Criterion not met.

Check out these entries, answers already filled in.
compound: N=C(N)NCCC[C@H](NC(=O)CCCC(=O)Nc1cccc(CN(Cc2ccccn2)Cc2ccccn2)n1)C(=O)N[C@@H](Cc1c[nH]c2ccccc12)C(=O)N[C@@H](CCCNC(=N)N)C(=O)N[C@@H](Cc1c[nH]c2ccccc12)C(=O)N[C@@H](CCCNC(=N)N)C(=O)N[C@@H](Cc1c[nH]c2ccccc12)C(=O)OCc1ccccc1 ({X2-Glutaryl}-RWRWRW-OBn)
classification: Criterion met
--
compound: N=C(N)NCCC[C@H](NC(=O)CCCC(=O)Nc1cccc(CN(Cc2ccccn2)Cc2ccccn2)n1)C(=O)N[C@@H](Cc1c[nH]c2ccccc12)C(=O)N[C@@H](CCCNC(=N)N)C(=O)N[C@@H](Cc1c[nH]c2ccccc12)C(=O)OCc1ccccc1 ({X2-Glutaryl}-RWRW-OBn)
classification: Criterion not met
--
compound: O=C(O)c1cn(C2CC2)c2cc(N3CCNCC3)c(F)cc2c1=O
classification: Criterion met

Is MIC of N=C(N)NCCC[C@H](NC(=O)[C@H](Cc1c[nH]c2ccccc12)NC(=O)CCCC(=O)Nc1cccc(CN(Cc2ccccn2)Cc2ccccn2)n1)C(=O)N[C@@H](Cc1c[nH]c2ccccc12)C(=O)N[C@@H](CCCNC(=N)N)C(=O)N[C@@H](Cc1c[nH]c2ccccc12)C(=O)N[C@@H](CCCNC(=N)N)C(=O)OCc1ccccc1 ({X2-Glutaryl}-WRWRWR-OBn) strictly below 20 µM?
Criterion met

Is MIC of N=C(N)NCCC[C@H](NC(=O)CCCC(=O)Nc1cccc(CN(Cc2ccccc2)Cc2ccccc2)c1)C(=O)N[C@@H](Cc1c[nH]c2ccccc12)C(=O)N[C@@H](CCCNC(=N)N)C(=O)N[C@@H](Cc1c[nH]c2ccccc12)C(=O)OCc1ccccc1 ({X1-Glutaryl}-RWRW-OBn) strictly below 20 µM?
Criterion not met

Is MIC of CCCCC[C@H](CC(=O)NO)C(=O)N[C@H](C(=O)N1CCC[C@H]1CO)C(C)C strictly below 20 µM?
Criterion not met

Is MIC of CC(=O)N[C@@H](CCCNC(=N)N)C(=O)N[C@@H](Cc1c[nH]c2ccccc12)C(=O)N[C@@H](CCCNC(=N)N)C(=O)N[C@@H](Cc1c[nH]c2ccccc12)C(=O)OCc1ccccc1 (Ac-RWRW-OBn) strictly below 20 µM?
Criterion not met

Is MIC of CN1CCN(c2c(F)cc3c(=O)c(C(=O)O)cn(CCF)c3c2F)CC1 strictly below 20 µM?
Criterion met

Is MIC of N=C(N)NCCC[C@H](NC(=O)[C@H](Cc1c[nH]c2ccccc12)NC(=O)CCCC(=O)Nc1cccc(CN(Cc2ccccn2)Cc2ccccn2)n1)C(=O)N[C@@H](Cc1c[nH]c2ccccc12)C(=O)N[C@@H](CCCNC(=N)N)C(=O)OCc1ccccc1 ({X2-Glutaryl}-WRWR-OBn) strictly below 20 µM?
Criterion met

Entry source: ChEMBL document CHEMBL2384943
